Experiment: inhibitors of the yeast RAM network, primary screen, dse1pr::URA3 reporter, 5-FOA selection (AID 868);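 note: 0% = DMSO-only wells with no growth and 100% = 10 µM 1-NA-PP1 full growth; inhibition rescues growth on 5-FOA so higher OD means more RAM inhibition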
Conditions: S. cerevisiae dse1pr::URA3 reporter, 5-FOA growth OD615, 2 d; at 50 µM; analog-sensitive cbk1-as2 kinase mutant strain
The whole screen tested about 190,000 compounds, of which about 3,500 (1.8%) were called active.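 Rule for the calls: active = inhibition above a set limit, 3 SD over mean compound inhibition (cut at about 8.4% in these data); inactive = the rest.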 The full list was thinned out, with actives kept by preference.
Pick one: active, inactive

Recorded results for 5 molecules are shown here.
CC(=O)c1cc(-c2ccccc2)n(CC(=O)NC2CCCCC2)c1C ... inactive
CC(C)Nc1nnc(SCC(=O)c2c[nH]c3ccccc23)s1 ... inactive
CC(=O)c1cc(-c2ccccc2)n(CCC(=O)NC2CCCCCC2)c1C ... active
CC(C)Nc1nnc(SCC(=O)/C=C2\N(C)c3ccccc3C2(C)C)s1 ... active
CN1/C(=C\C(=O)c2cccnc2Cl)C(C)(C)c2ccccc21 ... inactive

In: Could you kindly confirm the outcome this assay logged for Cc1cccn2c(CN(C)C3CCCc4ccccc43)c(C(=O)N3CCOCC3)nc12 (stereo unspecified) ?
Out: inactive

In: Lab log entry: COc1cccc(C2CC(c3ccccc3)=NN2S(=O)(=O)c2ccccc2)c1OC (stereo unspecified) — outcome as called in the assay?
Out: inactive

In: Identify the outcome logged in this assay for the molecule shown: COCCCNc1nc2c(-c3cccc(C(F)(F)F)c3)nnn2c2ccccc12
Out: inactive

In: State the result this test recorded for O=C(Nn1cnc2ccccc2c1=O)c1ccccc1 .
Out: inactive

In: Answer briefly: the call reported for COc1ccc(CCN=C2SCC(=O)N2Cc2ccccc2)cc1OC in this assay.
Out: inactive

In: Hi, sorry to bother you, what did the test record for COc1ccc(C2CC(=O)n3c(nc4ccccc43)S2)cc1OC (stereo unspecified) ?
Out: inactive

###

Experiment: inhibitors of the yeast RAM network, primary screen, dse1pr::URA3 reporter, 5-FOA selection (AID 868);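 note: 0% = DMSO-only wells with no growth and 100% = 10 µM 1-NA-PP1 full growth; inhibition rescues growth on 5-FOA so higher OD means more RAM inhibition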
Conditions: S. cerevisiae dse1pr::URA3 reporter, 5-FOA growth OD615, 2 d; at 50 µM; analog-sensitive cbk1-as2 kinase mutant strain
The campaign covered roughly 190,000 compounds. About 3,500 (1.8%) were called active.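 The calls were made as follows: active = inhibition above a set limit, 3 SD over mean compound inhibition (cut at about 8.4% in these data); inactive = the rest.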 For the sample, actives were picked, then their nearest neighbours and some compounds at random.
// classify into YES = active, NO = inactive

In: Answer briefly: the call reported for COc1ccc2cc(CCl)c(Cl)nc2c1 in this assay.
Out: NO

In: # outcome recorded in this test, key = N/C(Cc1ccc([N+](=O)[O-])cc1)=N\OC(=O)COc1ccc2ccccc2c1
Out: YES

In: What is the recorded call for this compound in the test? C/C(=N\Nc1nc(N2CCOCC2)nc(N2CCOCC2)n1)c1ccc([N+](=O)[O-])cc1
Out: NO

In: Dear all, I need the recorded test outcome for O=C(NCc1ccccc1)C1CCCN(c2nc3ccsc3c(=O)s2)C1 (stereo not given) , thank you.
Out: NO

In: Hi team, can someone confirm the assay call for N/C(=N\OC(=O)COc1ccc([N+](=O)[O-])cc1)c1ccc(Br)cc1 ?
Out: NO

###

I'd appreciate it if you could supply inhibition values for the items below.
Assay: inhibitors of the yeast RAM network, primary screen, dse1pr::URA3 reporter, 5-FOA selection (AID 868);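 note: 0% = DMSO-only wells with no growth and 100% = 10 µM 1-NA-PP1 full growth; inhibition rescues growth on 5-FOA so higher OD means more RAM inhibition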
Details: S. cerevisiae dse1pr::URA3 reporter, 5-FOA growth OD615, 2 d; at 50 µM; stronger effect = higher value; analog-sensitive cbk1-as2 kinase mutant strain
In all, about 190,000 compounds went through this assay and about 3,500 (1.8%) were called active. The sample as a whole holds a higher share of actives than the screen did.
One number for each entry, in %.

COc1ccc(C(=O)C[n+]2ccc(C)cc2)cc1 ... 0.48
Cc1cccc(C2=N/C(=C/c3cccs3)C(=O)O2)c1 ... 4.44
CN(C)S(=O)(=O)c1cccc(NC(=O)COC(=O)c2cc(=O)[nH]c(=O)[nH]2)c1 ... 0.97
CN(C)S(=O)(=O)c1cccc(NC(=O)COC(=O)C2(c3ccccc3F)CCCC2)c1 ... 15.4

In: inhibition for CN(C)S(=O)(=O)c1cccc(NC(=O)COC(=O)/C=C/c2cccs2)c1 ?
Out: 0.87
